Reported Papp A→B at 90 min, 10 μM values for a set of compounds
Assay: in vitro
Conditions: human, Caco-2, pH 7.4

Compound: Cc1cccnc1[C@@H]1CCC[C@H](c2nc3ccccn3c2[C@H](O)C2CCN(C)CC2)N1C [Compound I-55]
Papp A→B at 90 min, 10 μM: 0.1 to 10 ×10⁻⁶ cm/s

Next up:
Task: Give Papp A→B at 90 min, 10 μM for CN1CCN(c2cccc3nc([C@H]4CCC[C@@H](c5ncccc5C5CC5)N4)c(Cl)n23)CC1 [Compound I-180]
Result: 10 to 30 ×10⁻⁶ cm/s

====

Test: Pharmacokinetics after intravenous or oral administration to dogs
Assay type: in vivo
Details: male, beagle, plasma; dog, PO: 3 mg/kg
Parameter measured: half-life (h)
Note: unit h is implicit; provide only the numeric part.

Task: Identify the reported half-life for the following entry. CN1CCN(c2cccc3nc([C@H]4CCC[C@@H](c5ncccc5Cl)N4)cn23)CC1 (single isomer, unassigned)
Result: 27.3
